Values from patent EP4722216A1

Entries and their Tmax
assay.notes: Pharmacokinetic study on mouse brain tissue (plasma/cerebrospinal fluid/brain tissue)
Assay type: in vivo
conditions.used: male, mouse, po; Cerebrospinal fluid; ICR mice, intragastric administration 10 mg/kg

- compound.structure.string: "C=C(C(=O)Nc1ccc(-c2c(-c3ccc(Oc4nccc(C)n4)c(F)c3)c3c(N)ncnc3n2C)c(Cl)c1)C1CC1"
  Tmax [min]: 60
- compound.structure.string: "C=C(C(=O)Nc1ccc(-c2c(-c3ccc(Oc4nccc(C)n4)c(F)c3)c3c(N)ncnc3n2C)cc1)C1CC1"
  Tmax [min]: 30

* * *

assay.notes: Pharmacokinetic study in rats in vivo
conditions.used: male, rat, po; Plasma; SD rats, intragastric administration 5 mg/kg
Entries and their Cmax

- compound: "C=C(C(=O)Nc1ccc(-c2c(-c3ccc(Oc4nccc(C)n4)c(F)c3)c3c(N)ncnc3n2C)c(Cl)c1)C1CC1 [Compound 4]"
  Cmax: "273 ng/mL"
- compound: "C=C(C(=O)Nc1ccc(-c2c(-c3ccc(Oc4nccc(C)n4)c(F)c3)c3c(N)ncnc3n2C)cc1)C1CC1 [Compound 1]"
  Cmax: "938 ng/mL"
